measured.target: human β2AR (human, UniProt P07550 2-365)
assay.info: cell-based or functional assay
Bridge positions count the residues as written; N and C are the ends. Square brackets hold non-standard residues; d marks the D form. Primed or numbered codes have the meaning given here. Azk = residue with azidated side chain, clicked to Pra; Pra′ = residue with alkynyl side chain, clicked to Azk; Lys(N3) = [N-]=[N+]=NCCCC[C@H](N)C(=O)O; 1Nal = N[C@@H](Cc1cccc2ccccc12)C(=O)O; Aad = N[C@@H](CCCC(=O)O)C(=O)O; Cha = N[C@@H](CC1CCCCC1)C(=O)O; Pra = C#CC[C@H](N)C(=O)O
// class assignment uses Shift (averaged) with these ranges: class 1 (below 10), class 2 (10 to below 50), class 3 (50 or more)

| binder | discrete.label |
| --- | --- |
| Ac-NARRIFNDARDIIQRMHLRQYELL-OH [compound 81] | class 1 |
| Ac-KKFN[Pra]CRD[Lys(N3)]IQRMHLRQYE[Cha]L-OH (triazole 5-9) [compound 74] | class 3 |
| Ac-FN[Pra′]CRD[Azk]IQRMHLRQYQLL-OH (triazole 3-7) [compound 28] | class 2 |
| Ac-FN[Azk]CRD[Pra′]IQRMHLRQYELL-OH (triazole 3-7) [compound 35] | class 1 |
| Ac-KKKFN[Pra′]CRD[Azk]IQRMHLRQYDLL-OH (triazole 6-10) [compound 55] | class 3 |
| Ac-FN[Pra′]CRD[Azk]IQRMHLRQYEIL-OH (triazole 3-7) [compound 32] | class 1 |
| Ac-KKKFN[Pra′]CRD[Azk]IQRMHLRQYE[Cha]L-OH (triazole 6-10) [compound 51] | class 3 |
| Ac-FNDCRDIIQRMHLRQYEHL-OH [compound 71] | class 1 |
| Ac-FNDCRDIIQRMHLRQYEAL-OH [compound 76] | class 1 |
| QRMHLRQYEXL (HELM PEPTIDE1{[ac].Q.R.M.H.L.R.Q.Y.E.[Cha].L}$$$$V2.0; SMILES CSCC[C@H](NC(=O)[C@H](CCCNC(=N)N)NC(=O)[C@H](CCC(N)=O)NC(C)=O)C(=O)N[C@@H](Cc1c[nH]cn1)C(=O)N[C@@H](CC(C)C)C(=O)N[C@@H](CCCNC(=N)N)C(=O)N[C@@H](CCC(N)=O)C(=O)N[C@@H](Cc1ccc(O)cc1)C(=O)N[C@@H](CCC(=O)O)C(=O)N[C@@H](CC1CCCCC1)C(=O)N[C@@H](CC(C)C)C(=O)O) [compound 66] | class 1 |
| Ac-RDIIQR[Lys(N3)]HLR[Pra′]YE[Cha]L-OH (triazole 7-11) [compound 64] | class 3 |
| Ac-FNDARDIIQRMHLRQYELL-OH [compound 75] | class 1 |
| Ac-FN[Pra′]CRD[Azk]IQRMHLRQY[Aad]LL-OH (triazole 3-7) [compound 37] | class 2 |
| Ac-RRIFNDCRDIIQRMHLRQYELL-OH [compound 73] | class 2 |
| Ac-FN[Pra′]CRD[Azk]IQRMHLRQYDLL-OH (triazole 3-7) [compound 39] | class 3 |
| Ac-KFN[Pra′]CRD[Azk]IQRMHLRQY[Aad]LL-OH (triazole 4-8) [compound 52] | class 3 |
| Ac-KFN[Pra′]CRD[Azk]IQRMHLRQYE[Cha]L-OH (triazole 4-8) [compound 50] | class 3 |
| Ac-FNDCRDIIQRMHLRQYEFL-OH [compound 68] | class 2 |
| Ac-FN[Pra′]CRD[Azk]IQRMHLRQ[1Nal]ELL-OH (triazole 3-7) [compound 43] | class 3 |
